System: gastric secretion
Test: Comparison of antisecretive activity, rats with tied pylorus, oral aqueous suspension
Assay type: in vivo
Conditions: oral, 2.5 hrs; 150 min
Counter-ions that a name gives are not always drawn.
experimentalReadout: Antisecretive activity (dose which reduces the gastric secretion by 50%) (mg/kg)
Answers are plain numbers, in mg/kg.

As a guide, the following entries are already answered.
O=C(N[C@@H](Cc1c[nH]c2ccccc12)C(=O)O)OCc1ccc(Br)cc1 [CR 451 - Calcium salt] = 233
O=C(N[C@@H](Cc1c[nH]c2ccccc12)C(=O)O)c1ccc(Cl)cc1 [CR 501 magnesium salt] = 230
Cc1ccc(C(=O)N[C@@H](Cc2c[nH]c3ccccc23)C(=O)O)cc1 [CR 510 - Calcium salt] = 602
O=C(N[C@@H](Cc1c[nH]c2ccccc12)C(=O)O)c1ccc(Cl)cc1 [CR 501 aluminium salt] = 195
O=C(N[C@@H](Cc1c[nH]c2ccccc12)C(=O)O)OCc1ccc([N+](=O)[O-])cc1 [CR 438 - Calcium salt] = 810

# evaluate next
Problem: Sample Nc1ccc(C(=O)N[C@@H](Cc2c[nH]c3ccccc23)C(=O)O)cc1 [CR 504 - Calcium salt] — what was its Antisecretive activity (dose which reduces the gastric secretion by 50%)?
Solution: 1480

----------
System: gastric secretion
Test: Comparison of antisecretive activity, rats with tied pylorus, oral aqueous suspension
Type: in vivo
Details: oral, 5 hrs; 300 min
Where a name gives a salt, the structure may show the parent alone.
experimentalReadout: Antisecretive activity (dose which reduces the gastric secretion by 50%) (mg/kg)
Numbers only, in mg/kg.

Solved entries (count: 5):
Nc1ccc(C(=O)N[C@@H](Cc2c[nH]c3ccccc23)C(=O)O)cc1 [CR 504 - Calcium salt] = 1865
O=C(N[C@@H](Cc1c[nH]c2ccccc12)C(=O)O)c1ccc(Cl)cc1 [CR 501 magnesium salt] = 180
O=C(N[C@@H](Cc1c[nH]c2ccccc12)C(=O)O)c1ccc(Cl)cc1 [CR 501 aluminium salt] = 152
O=C(N[C@@H](Cc1c[nH]c2ccccc12)C(=O)O)OCc1ccc([N+](=O)[O-])cc1 [CR 438 - Calcium salt] = 780
Cc1ccc(C(=O)N[C@@H](Cc2c[nH]c3ccccc23)C(=O)O)cc1 [CR 510 - Calcium salt] = 574

Problem: Query for gastric secretion: what Antisecretive activity (dose which reduces the gastric secretion by 50%) does the record show for O=C(N[C@@H](Cc1c[nH]c2ccccc12)C(=O)O)OCc1ccc(Br)cc1 [CR 451 - Calcium salt] ?
Solution: 220

----------
For each record, write down the corresponding log10 ED50.
Tested on: gastric secretion
Test: Comparison of antisecretive activity, rats with tied pylorus, oral aqueous suspension
Format: in vivo
Conditions: Rattus norvegicus, po, 10 h, oral, 10 hrs; read-out: Antisecretive activity (dose which reduces the gastric secretion by 50%)
Quick note: numbers are log10 of ED50, with mg/kg as the unit.

Reference set, count: 4
Nc1ccc(C(=O)N[C@@H](Cc2c[nH]c3ccccc23)C(=O)O)cc1 [Ex.28 (CR504), N-p-amino-benzoyl-L-tryptophane] = 3.17
Cc1ccc(C(=O)N[C@@H](Cc2c[nH]c3ccccc23)C(=O)O)cc1 [Ex.21 (CR510), N-p-toluyl-L-tryptophane] = 2.54
O=C(N[C@@H](Cc1c[nH]c2ccccc12)C(=O)O)OCc1ccc([N+](=O)[O-])cc1 [Ex.12 (CR438), N-p-nitro-carbobenzoxy-L-tryptophane] = 2.99
O=C(N[C@@H](Cc1c[nH]c2ccccc12)C(=O)O)c1ccc(Cl)cc1 [Ex.18 (CR501), N-p-chloro-benzoyl-L-tryptophane] = 2.18

Pending compound:
Problem: Requested field: log10 ED50. Item: O=C(N[C@@H](Cc1c[nH]c2ccccc12)C(=O)O)OCc1ccc(Cl)cc1 [Ex. 1 (CR449), N-p-chloro-carbobenzoxy-L-tryptophane]
Solution: 2.06
